System: Cercopithecidae
Assay: Ratio of potencies against Mu receptor of monkey to that of rat
Recorded measurements of Ratio, one per entry
Kindly provide the number alone.

See these solved cases before continuing.
{"columns": ["smiles.str", "Ratio"],
 "data": [
  ["CCCCCCCN1CC[C@]2(C)c3cc(O)ccc3CC1[C@H]2C", 1.1],
  ["C[C@@H]1C2Cc3ccc(O)cc3[C@]1(C)CCN2C", 0.3],
  ["CCCCCCCCCCN1CC[C@]2(C)c3cc(O)ccc3CC1[C@H]2C", 0.2]
]}

Q: Check the records and state Ratio for CCCCN1CC[C@]2(C)c3cc(O)ccc3CC1[C@@H]2C
Ans: 0.3

Q: State its Ratio for this compound: CCCCCCCCCN1CC[C@]2(C)c3cc(O)ccc3CC1[C@@H]2C
Ans: 1.2

Q: Please indicate Ratio recorded for CCCCCCCCN1CC[C@]2(C)c3cc(O)ccc3CC1[C@H]2C
Ans: 0.3

Q: Please indicate Ratio recorded for CCCCCCN1CC[C@@]2(C)c3cc(O)ccc3CC1[C@H]2C
Ans: 0.4

Q: Identify the reported Ratio for the following entry. CCCCCCCCCCN1CC[C@]2(C)c3cc(O)ccc3CC1[C@@H]2C
Ans: 2

Q: Report measured Ratio; entry is CCCCCCCCN1CC[C@]2(C)c3cc(O)ccc3CC1[C@@H]2C
Ans: 2

Q: Specify reported Ratio for the compound shown: CCCCN1CC[C@@]2(C)c3cc(O)ccc3CC1[C@H]2C
Ans: 0.4

Q: Tell me Ratio reported for CCCCCCN1CC[C@]2(C)c3cc(O)ccc3CC1[C@@H]2C
Ans: 8.3

* * *

Species: Cavia porcellus
Assay: Ratio of potencies against sigma receptor to that of Mu receptor of rat
Quick reference for Ratio among some compounds
Give the figure only, with no unit attached.

Q: Dear colleague, please send me the reported Ratio for CCCCCCCCCN1CC[C@]2(C)c3cc(O)ccc3CC1[C@H]2C when you can.
Ans: 0.009

Q: Recall and state the measured Ratio for CCCCCCN1CC[C@]2(C)c3cc(O)ccc3CC1[C@@H]2C .
Ans: 8.5

Q: Fill in Ratio for record CCCCCCCN1CC[C@]2(C)c3cc(O)ccc3CC1[C@H]2C
Ans: 0.008

Q: Supply recorded Ratio for CCCCN1CC[C@@]2(C)c3cc(O)ccc3CC1[C@H]2C here.
Ans: 0.002

Q: Name the recorded Ratio of the compound listed here: CCCN1CC[C@]2(C)c3cc(O)ccc3CC1[C@@H]2C
Ans: 97

Q: Give Ratio for the following compound: CCCN1CC[C@@]2(C)c3cc(O)ccc3CC1[C@H]2C
Ans: 0.008

* * *

Molecular target: Glutamate NMDA receptor
Experiment: Inhibition using [3H]TCP in homogenate of rat brain
pKi: −log10 of the molar value.
Mark class 0 for pKi values under 6, and class 1 for everything at or above.

Look over these answered cases.
{"columns": ["smiles.str", "label"],
 "data": [
  ["CCCCN1CC[C@]2(C)c3cc(O)ccc3CC1[C@@H]2C", "class 1"],
  ["C[C@@H]1C2Cc3ccc(O)cc3[C@]1(C)CCN2C", "class 1"],
  ["CCCCCN1CC[C@@]2(C)c3cc(O)ccc3CC1[C@H]2C", "class 0"],
  ["CCCCCCCCCCN1CC[C@]2(C)c3cc(O)ccc3CC1[C@@H]2C", "class 0"],
  ["CCCCCCCCCN1CC[C@]2(C)c3cc(O)ccc3CC1[C@H]2C", "class 0"],
  ["CCCCCCCCN1CC[C@]2(C)c3cc(O)ccc3CC1[C@@H]2C", "class 0"],
  ["CCCN1CC[C@]2(C)c3cc(O)ccc3CC1[C@@H]2C", "class 1"]
]}

Moving on to another compound below.
Q: Determine whether this compound has pKi no lower than 6: CCCCCCCCCN1CC[C@]2(C)c3cc(O)ccc3CC1[C@@H]2C
Ans: class 0

* * *

Molecular target: Kappa-type opioid receptor (Homo sapiens)
Assay: Ratio of potencies of (+) and (-) enantiomers against kappa receptors in monkeys
Conditions: Cercopithecidae; target entry is the homologue from another species
Recorded measurements of Ratio, one per entry
Reply with just the number.

{"columns": ["smiles.str", "system.tested", "Ratio"],
 "data": [
  ["CCCCCCCCCN1CC[C@]2(C)c3cc(O)ccc3CC1[C@@H]2C", "Kappa-type opioid receptor (Homo sapiens)", 3.2],
  ["C[C@H]1C2Cc3ccc(O)cc3[C@@]1(C)CCN2C", "Kappa-type opioid receptor (Homo sapiens)", 222],
  ["CCCCCCCCCCN1CC[C@]2(C)c3cc(O)ccc3CC1[C@@H]2C", "Kappa-type opioid receptor (Homo sapiens)", 1],
  ["CCCCCCCN1CC[C@]2(C)c3cc(O)ccc3CC1[C@@H]2C", "Kappa-type opioid receptor (Homo sapiens)", 23],
  ["CCCCCCCCN1CC[C@]2(C)c3cc(O)ccc3CC1[C@@H]2C", "Kappa-type opioid receptor (Homo sapiens)", 29]
]}

Q: // Input: CCCCN1CC[C@]2(C)c3cc(O)ccc3CC1[C@@H]2C . Output its Ratio only.
Ans: 160

Q: Consider the molecule CCCN1CC[C@]2(C)c3cc(O)ccc3CC1[C@@H]2C . State its measured Ratio.
Ans: 226

Q: Please report the measured Ratio for CCCCCCN1CC[C@]2(C)c3cc(O)ccc3CC1[C@@H]2C
Ans: 53

* * *

Species: Cavia porcellus
Assay: Ratio of potencies against PCP receptor to that of sigma receptor
Classification field: yes = Ratio at or over 100; no = Ratio under 100.

Consider the worked cases shown below.
{"columns": ["smiles.str", "label"],
 "data": [
  ["CCCN1CC[C@@]2(C)c3cc(O)ccc3CC1[C@H]2C", "no"],
  ["CCCCCCCN1CC[C@]2(C)c3cc(O)ccc3CC1[C@@H]2C", "yes"],
  ["CCCCCCCCCN1CC[C@]2(C)c3cc(O)ccc3CC1[C@H]2C", "yes"]
]}

Q: Textbook exercise: given the entry CCCCCCCCN1CC[C@]2(C)c3cc(O)ccc3CC1[C@@H]2C , state whether its Ratio is greater than or equal to 100.
Ans: yes

Q: Check the entry CCCN1CC[C@]2(C)c3cc(O)ccc3CC1[C@@H]2C : does Ratio equal or exceed 100?
Ans: no

* * *

Tested on: Mus musculus
Experiment: In vivo antinociceptive activity was tested through hot plate (HP) and counting jumps or paw licks
Format: functional, organism-based
Activity calls are given as the source filed them. The calls are words filed in the database; no cut-off is given here.
assay.readout: Activity

Guide cases for Activity, answers given:
{"columns": ["smiles.str", "system.tested", "Activity"],
 "data": [
  ["CCCCCCCCCN1CC[C@]2(C)c3cc(O)ccc3CC1[C@H]2C", "Mus musculus", "inactive"],
  ["CCCN1CC[C@]2(C)c3cc(O)ccc3CC1[C@@H]2C", "Mus musculus", "inactive"],
  ["CCCCN1CC[C@@]2(C)c3cc(O)ccc3CC1[C@H]2C", "Mus musculus", "inactive"],
  ["CCCN1CC[C@@]2(C)c3cc(O)ccc3CC1[C@H]2C", "Mus musculus", "inactive"],
  ["CCCCN1CC[C@]2(C)c3cc(O)ccc3CC1[C@@H]2C", "Mus musculus", "inactive"]
]}

Q: Check the records and state Activity for C[C@@H]1C2Cc3ccc(O)cc3[C@]1(C)CCN2C
Ans: inactive

Q: Please give the documented Activity of CCCCCCCCCN1CC[C@]2(C)c3cc(O)ccc3CC1[C@@H]2C
Ans: inactive

Q: Read the entry CCCCCCN1CC[C@@]2(C)c3cc(O)ccc3CC1[C@H]2C and write its reported Activity.
Ans: inactive

Q: Specify Activity for CCCCCCCCCCN1CC[C@]2(C)c3cc(O)ccc3CC1[C@H]2C and stop.
Ans: inactive

Q: Look up and state reported Activity for CCN1CC[C@@]2(C)c3cc(O)ccc3CC1[C@H]2C
Ans: inactive

Q: Quick one: give measured Activity for CCCCCCCCCCN1CC[C@]2(C)c3cc(O)ccc3CC1[C@@H]2C
Ans: inactive

* * *

Biological target: Mu-type opioid receptor (Rattus norvegicus)
Sequence (P33535 whole entry): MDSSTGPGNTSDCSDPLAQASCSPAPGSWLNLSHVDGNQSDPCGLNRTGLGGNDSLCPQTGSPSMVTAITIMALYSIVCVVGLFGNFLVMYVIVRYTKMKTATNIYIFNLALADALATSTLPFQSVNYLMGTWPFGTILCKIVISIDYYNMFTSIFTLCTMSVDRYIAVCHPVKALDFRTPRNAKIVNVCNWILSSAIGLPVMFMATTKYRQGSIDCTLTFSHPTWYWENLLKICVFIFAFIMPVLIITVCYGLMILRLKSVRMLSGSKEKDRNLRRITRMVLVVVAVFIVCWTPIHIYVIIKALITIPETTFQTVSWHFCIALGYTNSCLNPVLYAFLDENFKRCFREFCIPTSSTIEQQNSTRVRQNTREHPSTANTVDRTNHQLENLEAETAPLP
pKi: −log10 of the molar value.
Please note: 1 (yes) applies when pKi is 6 or greater, and 0 (no) applies otherwise.

Observe how each entry below is paired with its result.
{"columns": ["smiles.str", "label"],
 "data": [
  ["CCCCCCCCCCN1CC[C@]2(C)c3cc(O)ccc3CC1[C@@H]2C", "1 (yes)"],
  ["CCCN1CC[C@]2(C)c3cc(O)ccc3CC1[C@@H]2C", "1 (yes)"],
  ["C[C@@H]1C2Cc3ccc(O)cc3[C@]1(C)CCN2C", "0 (no)"],
  ["CCCCCN1CC[C@@]2(C)c3cc(O)ccc3CC1[C@H]2C", "0 (no)"],
  ["C[C@@H]1C2Cc3ccc(O)cc3[C@]1(C)CCN2", "1 (yes)"],
  ["CCCCCCCN1CC[C@]2(C)c3cc(O)ccc3CC1[C@H]2C", "1 (yes)"]
]}

Q: Could you verify whether the entry CCN1CC[C@]2(C)c3cc(O)ccc3CC1[C@@H]2C shows pKi of no less than 6?
Ans: 1 (yes)

Q: Check the entry C[C@H]1C2Cc3ccc(O)cc3[C@@]1(C)CCN2C : does pKi equal or exceed 6?
Ans: 1 (yes)
